Test: NCI Yeast Anticancer Drug Screen. Data for the cln2 rad14 strain (AID 165);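 also: 0% = growth equal to vehicle treated cultures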
Settings: S. cerevisiae cln2 rad14 strain, at 50.0 µM, hits give high values
The panel holds about 79,000 compounds, 15% with a hit somewhere; the sample as a whole holds those more often.
Entries and their measured growth inhibition follow.
The reply should contain only the number, in %.

Answered examples (5):
compound	uom	growth inhibition
CC(O)C(O)C(O)C(O)C(O)C(=O)O (stereo unspecified)	%	1.95
O=C(Nc1cc(Cl)cc(Cl)c1)C(F)(F)F	%	92.4
CCCCCCCCCCCC(=O)OCC(C)C	%	-3.95
COc1ccc2c(c1)C(=O)C[C@@H]1[C@](C)(C#N)CCC[C@]21C	%	-2.7
C/C(=N\NC(=S)Nc1ccc([N+](=O)[O-])cc1)c1nc2ncccc2[nH]1	%	67.2

Value lookup for growth inhibition; key = C/C(=N\NC(=O)N/N=C(\C)c1ccccn1)c1ccccn1
2.95

* * *

Assay: NCI Yeast Anticancer Drug Screen. Data for the mec2-1 strain (AID 157)
Details: S. cerevisiae mec2-1 strain, at 50.0 µM
This is part of a sample that, as a whole, favours compounds with a hit. Of some 79,000 tested, about 15% had one in any assay. Calls of active or inactive are those of the source. Rule as the data show it: active = growth inhibition above about 70%; inactive = the rest.
Returns: one label drawn from true (1) for active, false (0) for inactive

Field: example entries. Status: answers known.
compound	group
Cc1cc(S(=O)(=O)Nc2nc(N)nc(N(C)C)n2)c(SC(C(=O)O)c2ccccc2)cc1Cl (configuration not stated)	false (0)
CCOC(=O)/C(=C\c1ccc(Cl)cc1)C(C)=O	true (1)
c1nc(N2CCOCC2)c2[nH]cnc2n1	false (0)

What classification did CCCCCCCCCCC[N+](C)(C)CCCCCC[N+](C)(C)CCCCCCCCCCC end up with in this test?
true (1)

What classification did COc1cccc(/C=N/N(C)C)c1O end up with in this test?
false (0)

What classification did CCCCCOC(=O)C1C(=O)CC(c2ccccc2)C1c1ccccc1 (configuration not stated) end up with in this test?
false (0)

What classification did CN1C(=O)c2ccccc2C1(c1ccccc1)c1ccccc1 end up with in this test?
false (0)

* * *

Experiment: NCI Yeast Anticancer Drug Screen. Data for the sgs1 mgt1 strain (AID 161);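 also: 0% = growth of cultures given vehicle only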
Settings: S. cerevisiae sgs1 mgt1 strain, at 50.0 µM (retest, dose inferred, filed as 5.0), hits give high values
Compounds without any hit were thinned out: in the full panel of roughly 79,000, 15% have a hit.
# binarize growth inhibition: threshold 40% inclusive, high side satisfied, low side not satisfied

Field: example entries. Status: answers known.
compound	group
CN(C)c1ccc(C(c2cc3c(cc2O)OCO3)N2CCCC2)cc1 (centres undefined)	satisfied
C[N+]1(C)C/C(=C\C=C\c2ccccc2)C(=O)/C(=C/C=C/c2ccccc2)C1	not satisfied

Dear colleague, could you confirm whether COc1ccc2ccc(=O)oc2c1CC=C(C)C has growth inhibition at or above 40%?
satisfied

Dear colleague, could you confirm whether Cc1cc(SCc2ccccc2)cc(C)[o+]1 has growth inhibition at or above 40%?
satisfied

Dear colleague, could you confirm whether COc1cc(C(c2cc3c(cc2O)OCO3)N2CCOCC2)ccc1O (centres undefined) has growth inhibition at or above 40%?
not satisfied

Dear colleague, could you confirm whether Cc1cccc2c(CC(=O)O)c[nH]c12 has growth inhibition at or above 40%?
satisfied

Dear colleague, could you confirm whether CC(=O)NC1CCCCC1CC1CCCCC1 (centres undefined) has growth inhibition at or above 40%?
not satisfied

Dear colleague, could you confirm whether CCOc1ccc2c(c1)nc1cc(Cl)ccc1[n+]2C has growth inhibition at or above 40%?
satisfied

* * *

Assay: NCI Yeast Anticancer Drug Screen. Data for the rad50 strain (AID 155);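 also: 0% = growth of vehicle-only cultures of the same strain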
Settings: S. cerevisiae rad50 strain growth inhibition; at 50.0 µM; hits give high values
Compounds without any hit were thinned out: in the full panel of roughly 79,000, 15% have a hit.
Entries and their measured growth inhibition follow.
The reply should contain only the number, in %.

Answered examples (2):
compound	growth inhibition [%]
COc1ccc(C(=O)C(c2ccc(OC)cc2)C2(O)C(=O)Nc3c(Cl)cc(Cl)cc32)cc1 (configuration not stated)	91
C/C(=N\NC(=S)N1CCC(O)CC1)c1ccccn1	99

Turning now to a further compound:
Value lookup for growth inhibition; key = C/C(=N\Oc1ncc([N+](=O)[O-])c(O/N=C(\C)c2ccccc2)n1)c1ccccc1
43.2

* * *

Assay: NCI Yeast Anticancer Drug Screen. Data for the mec2-1 strain (AID 157)
Settings: S. cerevisiae mec2-1 strain, at 5.0 µM (retest, dose inferred, filed as 0.5), hits give high values
This is part of a sample that, as a whole, favours compounds with a hit. Of some 79,000 tested, about 15% had one in any assay.
Entries and their measured growth inhibition follow.
The reply should contain only the number, in %.

Answered examples (4):
compound	growth inhibition (%)
Cc1cc(Nc2ccc(N=Nc3ccc(O)c4ncccc34)cc2)nc(C)n1	-4
NC(=S)c1cccc(OCCCOc2ccccc2)c1	0
C/C(=N\NC(=O)N/N=C(\C)c1ccccn1)c1ccccn1	-18
COc1cc2c(cc1OC)-c1nc(Nc3ccccc3)sc1CC2	-1

Value lookup for growth inhibition; key = Fc1cccc2c1cc1ccc3cccc4ccc2c1c34
0

Value lookup for growth inhibition; key = Oc1ccc(C2CCCCC2)c(O)c1
2

Value lookup for growth inhibition; key = CCCCCCCCCCCC(=O)[O][Sn]([CH2]C)([CH2]C)[O]C(=O)CCCCCCCCCCC
2

Value lookup for growth inhibition; key = O=[N+]([O-])c1cc([N+](=O)[O-])c2ccccc2c1O
8

Value lookup for growth inhibition; key = CC(O)C1CCCC[N+]1(C)C (stereo unspecified)
5

Value lookup for growth inhibition; key = O=C(CC(O)c1ccccc1)Sc1ccccc1 (stereo unspecified)
-2

Value lookup for growth inhibition; key = Cc1cc(C=Nc2ccccc2)c(O)c2ncccc12
10

Value lookup for growth inhibition; key = CCCCNCCC1(c2ccccc2)C(=O)Oc2ccccc21 (stereo unspecified)
-4

Value lookup for growth inhibition; key = CCOC(=O)/C(=C\c1ccc(Br)cc1)C(C)=O
29

Value lookup for growth inhibition; key = C(=C/c1ccccc1)/C=N/Nc1ccccc1
-52

Value lookup for growth inhibition; key = CN(C)CCC[Si]1(C)c2ccccc2CCc2ccccc21
-5

Value lookup for growth inhibition; key = CC(C)(C)Oc1ccc(CC(NC(=O)OCC2c3ccccc3-c3ccccc32)C(=O)O)cc1 (stereo unspecified)
-11

* * *

Test: NCI Yeast Anticancer Drug Screen. Data for the sgs1 mgt1 strain (AID 161);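 also: 0% = growth of cultures given vehicle only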
Conditions: S. cerevisiae sgs1 mgt1 strain, at 5.0 µM (retest, dose inferred, filed as 0.5), hits give high values
This is part of a sample that, as a whole, favours compounds with a hit. Of some 79,000 tested, about 15% had one in any assay.
# binarize growth inhibition: threshold 40% inclusive, high side rule met, low side rule not met

Field: example entries. Status: answers known.
compound	group
O=C(c1ccccc1)C(C(=O)c1ccccc1)c1ccc2ccccc2n1	rule not met
Nc1ncnc2nc[nH]c12.[Ag]	rule met
c1ccc(NN=C(c2ccccc2)c2ccccc2)cc1	rule not met

Dear colleague, could you confirm whether CCOC(=O)c1ccc2c3c([nH]c2c1C)-c1ccccc1CC3 has growth inhibition at or above 40%?
rule not met

Dear colleague, could you confirm whether CCCc1cc2c(cc1O)CC[C@@H]1[C@@H]2CC[C@]2(C)[C@@H](O)CC[C@@H]12 has growth inhibition at or above 40%?
rule not met

Dear colleague, could you confirm whether OCC1OC(NC(=S)NCSCCC(F)(F)C(F)(F)C(F)(F)C(F)(F)C(F)(F)C(F)(F)F)C(O)C(O)C1O (configuration not stated) has growth inhibition at or above 40%?
rule not met

Dear colleague, could you confirm whether CCCCCCCCCCCCCCCC(=O)N1CC[N+](C)(C)CC1 has growth inhibition at or above 40%?
rule met

* * *

Assay: NCI Yeast Anticancer Drug Screen. Data for the bub3 strain (AID 167)
Settings: S. cerevisiae bub3 mutant strain, at 50.0 µM (retest, dose inferred, filed as 5.0), hits give high values
The panel holds about 79,000 compounds, 15% with a hit somewhere; the sample as a whole holds those more often.
Each entry belongs to exactly one class, chosen by where its growth inhibition falls: low = under 20%, intermediate = from 20% up to 90%, high = 90% and over

compound	group
CCCCCCCCCCCN1C(=O)c2ccccc2S1(=O)=O	intermediate
CCCCNCCC1(c2ccccc2)C(=O)Oc2ccccc21 (stereo not given)	low
CC(=O)CCCOC(C)=O	intermediate
O=c1oc2ccccc2c(O)c1/C=N/C(=S)NCCc1ccccc1	high

Which bin should I file COc1cccc(C2CC(C)(O)Oc3cc4c(cc32)OCO4)c1 (stereo not given) under?
intermediate

Which bin should I file Nc1cc(S(=O)(=O)O)cc2cc(S(=O)(=O)O)c(N=Nc3ccccc3)c(O)c12 under?
low

Which bin should I file CC(NCCO)c1ccc2ccccc2c1 (stereo not given) under?
low

Which bin should I file NC(CSSCC(N)=NCCCCCSC12CC3CC(CC(C3)C1)C2)=NCCCCCSC12CC3CC(CC(C3)C1)C2 under?
low

Which bin should I file O=C1CC(c2ccccc2)c2c(ccc3ccccc23)O1 (stereo not given) under?
intermediate

Which bin should I file COc1ccc(C2COc3cc(OC(C)=O)c(OC(C)=O)cc3C2)cc1 (stereo not given) under?
high

Which bin should I file CCc1cccc(C)c1NC(=O)C(=O)C(C#N)c1ccc(C)cc1 (stereo not given) under?
intermediate

Which bin should I file CCCCCCCC(=O)N1CCCCC1CC (stereo not given) under?
low

Which bin should I file O=C(CC(O)c1ccccc1)Sc1ccccc1 (stereo not given) under?
low

Which bin should I file Cc1nc2c([N+](=O)[O-])c(N3CCCCC3)c([N+](=O)[O-])cc2[nH]1 under?
intermediate

Which bin should I file O=C1C(=O)c2ccccc2C(O)=C1Sc1ccccc1 under?
high

Which bin should I file COC(=O)C(=Cc1c[nH]c2ccccc12)C(=O)OC under?
low

Which bin should I file CCCCCCCCCCCC(=O)[O][Sn]([CH2]C)([CH2]C)[O]C(=O)CCCCCCCCCCC under?
low

Which bin should I file Cc1ccc(NCCN(C)C)c2c(=O)c3c(O)cccc3sc12 under?
high

// provenance: PubChem BioAssay (NCI)
